Recorded melting point for the following compounds
Where a name gives a salt, the structure may show the parent alone.

[[record]]
compound = "Cl.Cl.O=C(C1CCCCC1)N(CCN1CCN(c2cccc3[nH]ccc23)CC1)C(=O)C1CCCCC1 [Example 7]"
result = "144 to 146 °C"

[[record]]
compound = "COc1ccccc1N1CCN(C[C@@H](Cc2ccccc2)N(C(=O)C2CCCCC2)C(=O)C2CCCCC2)CC1 (as salt: fumarate) [Example 10]"
result = "146 to 147 °C"

[[record]]
compound = "COc1ccc(C[C@H](CN2CCN(c3ccccc3OC)CC2)N(C(=O)C2CCCCC2)C(=O)C2CCCCC2)cc1 (as salt: hydrochloride) [Example 11]"
result = "106 to 108 °C"


Which melting point is listed for O=C(C1CCCCC1)N(CCN1CCN(c2cccc3c2OCCO3)CC1)C(=O)C1CCCCC1 (as salt: hydrochloride) (hydrate or solvate) [Example 8, sesquihydrochloride monohydrate] ?
148 to 149 °C

Which melting point is listed for COc1ccccc1N1CCN(CCN(C(=O)C2CCCCC2)C(=O)C2CCCCC2)CC1.Cl.Cl [Example 6] ?
159 to 160 °C

Which melting point is listed for COc1ccccc1N1CCN(C[C@@H](Cc2cn(C)c3ccccc23)N(C(=O)C2CCCCC2)C(=O)C2CCCCC2)CC1.Cl.O (hydrate or solvate) [Example 12] ?
136 to 138 °C

Which melting point is listed for COc1ccccc1N1CCN(C[C@@H](C)N(C(=O)c2ccccc2)C(=O)c2ccccc2)CC1 (as salt: fumarate) (hydrate or solvate) [Example 16] ?
115 to 120 °C

Which melting point is listed for O=C(c1ccccc1)N(CCN1CCN(c2cccc3c2OCCO3)CC1)C(=O)C1CCCCC1 (as salt: hydrochloride) (hydrate or solvate) [Example 14, hydrochloride sesquihydrate] ?
169 to 171 °C

----------
TARGET SYSTEM: UniProtKB P08908
Sequence (P08908 whole entry): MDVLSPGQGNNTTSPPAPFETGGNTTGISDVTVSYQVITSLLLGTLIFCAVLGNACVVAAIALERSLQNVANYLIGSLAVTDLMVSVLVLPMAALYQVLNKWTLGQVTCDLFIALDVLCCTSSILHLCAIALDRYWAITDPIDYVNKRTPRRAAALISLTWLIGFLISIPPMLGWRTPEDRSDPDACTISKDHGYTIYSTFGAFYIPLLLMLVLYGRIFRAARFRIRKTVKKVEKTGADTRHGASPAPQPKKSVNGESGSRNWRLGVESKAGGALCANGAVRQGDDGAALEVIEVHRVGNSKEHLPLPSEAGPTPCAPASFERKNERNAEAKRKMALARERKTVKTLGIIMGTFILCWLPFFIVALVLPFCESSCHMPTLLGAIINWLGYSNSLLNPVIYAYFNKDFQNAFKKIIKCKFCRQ
MEASUREMENT PROTOCOL: Displacement of [3H]8-OH-DPAT from the 5-HT1A receptor in transfected CHO cells
TEST CONDITIONS: [3H]-8-OH-DPAT 1.5 nM; CHO cells with human 5-HT1A receptor; nonspecific binding with 10 μM 5-HT; room temperature; read-out: 5-HT1A Affinity (IC50)
pIC50: −log10 of the molar value. Counter-ions that a name gives are not always drawn.
Response key: True means pIC50 >= 8; False means pIC50 < 8.

Assess whether reported pIC50 for COc1ccccc1N1CCN(C[C@@H](Cc2ccccc2)N(C(=O)C2CCCCC2)C(=O)C2CCCCC2)CC1 [Example 10] sits at 8 or higher.
False

Assess whether reported pIC50 for O=C(C1CCCCC1)N(CCN1CCN(c2cccc3c2OCCO3)CC1)C(=O)C1CCCCC1 [Example 8, sesquihydrochloride monohydrate] sits at 8 or higher.
True

Assess whether reported pIC50 for Cl.Cl.O=C(C1CCCCC1)N(CCN1CCN(c2cccc3[nH]ccc23)CC1)C(=O)C1CCCCC1 [Example 7, dihydrochloride] sits at 8 or higher.
True

Assess whether reported pIC50 for COc1ccc(C[C@H](CN2CCN(c3ccccc3OC)CC2)N(C(=O)C2CCCCC2)C(=O)C2CCCCC2)cc1 [Example 11, hydrochloride] sits at 8 or higher.
True

Assess whether reported pIC50 for COc1ccccc1N1CCN(C[C@@H](Cc2cn(C)c3ccccc23)N(C(=O)C2CCCCC2)C(=O)C2CCCCC2)CC1 [Example 12, hydrochloride monohydrate] sits at 8 or higher.
True

Assess whether reported pIC50 for O=C(c1ccccc1)N(CCN1CCN(c2cccc3c2OCCO3)CC1)C(=O)C1CCCCC1 [Example 14, hydrochloride sesquihydrate] sits at 8 or higher.
True

Assess whether reported pIC50 for COc1ccccc1N1CCN(CCN(C(=O)C2CCCCC2)C(=O)C2CCCCC2)CC1.Cl.Cl [Example 6, dihydrochloride] sits at 8 or higher.
True

Assess whether reported pIC50 for COc1ccccc1N1CCN(CCN(C(=O)c2ccccc2)C(=O)c2ccccc2)CC1 [Example 15, hydrochloride hemihydrate] sits at 8 or higher.
False

Assess whether reported pIC50 for COc1ccccc1N1CCN(C[C@@H](C)N(C(=O)c2ccccc2)C(=O)c2ccccc2)CC1 [Example 16] sits at 8 or higher.
False

The origin of these recorded values is patent US20020013324A1.
